tested on: NCI-H292 lung cancer cells; assay: FDA drug screening, complete media vs cholesterol-free media without statin (TABLE 1); format: cell-based, human; settings: Complete minus Cholesterol-free; greater than 0 enhanced anti-cancer activity, about 0 neutral, below 0 antagonist
Structures can show the parent of a compound that is named as a salt.
Please use Yes whenever Difference is not below -0.1, and No whenever it is.

# Molecule, Experimental System, Discrete Label
records = [
    ("O=S(=O)(c1cccc2cnccc12)N1CCCNCC1 [Fasudil (Hydrochloride)]", "NCI-H292 lung cancer cells", "No"),
    ("CCC(=O)NC[C@@H]1C[C@H]1c1cccc2c1CCO2", "NCI-H292 lung cancer cells", "No"),
    ("CN(C)CCN(Cc1ccc(Cl)cc1)c1ccccn1 [Chloropyramine hydrochloride]", "NCI-H292 lung cancer cells", "No"),
]

Task: Answer whether Difference of COc1ccc2cc3[n+](cc2c1OC)CCc1cc2c(cc1-3)OCO2.[Cl-] [Berberine (chloride)] is greater than or equal to -0.1.
Output: Yes

All figures here come from patent US20250144067A1.
